measured target: hERG channel (Homo sapiens (Human))
Sequence (Q12809 whole entry): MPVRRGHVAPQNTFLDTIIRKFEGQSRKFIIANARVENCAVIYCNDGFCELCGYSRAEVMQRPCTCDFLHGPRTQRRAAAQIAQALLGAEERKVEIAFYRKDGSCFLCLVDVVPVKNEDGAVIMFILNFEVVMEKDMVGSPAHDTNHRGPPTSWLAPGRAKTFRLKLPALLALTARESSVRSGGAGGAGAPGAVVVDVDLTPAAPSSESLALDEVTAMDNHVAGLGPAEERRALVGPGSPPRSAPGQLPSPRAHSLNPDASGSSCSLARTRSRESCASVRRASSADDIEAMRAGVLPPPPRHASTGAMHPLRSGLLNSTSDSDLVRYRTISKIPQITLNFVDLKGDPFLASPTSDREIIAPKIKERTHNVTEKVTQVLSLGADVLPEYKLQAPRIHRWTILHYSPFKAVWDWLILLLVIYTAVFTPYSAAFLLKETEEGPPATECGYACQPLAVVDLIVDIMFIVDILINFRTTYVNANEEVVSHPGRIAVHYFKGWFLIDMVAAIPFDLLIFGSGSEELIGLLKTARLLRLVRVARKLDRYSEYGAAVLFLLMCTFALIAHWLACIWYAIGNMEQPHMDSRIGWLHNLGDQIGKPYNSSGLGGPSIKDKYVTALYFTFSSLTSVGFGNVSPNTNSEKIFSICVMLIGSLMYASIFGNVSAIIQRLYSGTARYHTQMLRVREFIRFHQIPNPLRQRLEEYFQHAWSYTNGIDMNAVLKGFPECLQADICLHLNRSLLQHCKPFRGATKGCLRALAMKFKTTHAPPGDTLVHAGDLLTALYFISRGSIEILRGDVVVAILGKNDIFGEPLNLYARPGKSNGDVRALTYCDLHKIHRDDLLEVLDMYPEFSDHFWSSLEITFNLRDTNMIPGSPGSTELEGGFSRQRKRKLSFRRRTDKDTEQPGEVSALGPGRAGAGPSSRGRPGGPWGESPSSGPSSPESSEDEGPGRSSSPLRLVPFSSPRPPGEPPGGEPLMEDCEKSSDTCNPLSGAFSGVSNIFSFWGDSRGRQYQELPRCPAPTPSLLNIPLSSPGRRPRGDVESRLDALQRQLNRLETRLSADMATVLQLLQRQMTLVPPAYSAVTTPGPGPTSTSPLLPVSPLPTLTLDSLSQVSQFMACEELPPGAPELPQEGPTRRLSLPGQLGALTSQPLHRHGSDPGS
test method notes: hERG electrophysiology, automated whole-cell patch clamp in CHO-K1 cells stably expressing hERG
Format: cell-based
assay context: Patchliner patch clamp
Measured IC50, listed per entry.

[
  {
    "compound": "O=C(C[C@H]1CN[C@@H](c2c(O)ccc(Cl)c2Cl)C1)N1CC[C@H]1CO",
    "IC50": "> 100 µM"
  },
  {
    "compound": "Oc1ccc(Cl)c(Cl)c1[C@H]1C[C@@H](Cc2cn[nH]c2)CN1",
    "IC50": "> 10 µM"
  },
  {
    "compound": "O=C(CC1CN[C@@H](c2c(O)ccc(Cl)c2Cl)C1)N1CC[C@@H](O)C1 (stereo partly drawn)",
    "IC50": "> 100 µM"
  },
  {
    "compound": "O=C(CC1CN[C@@H](c2c(O)ccc(Cl)c2Cl)C1)N1CC(O)(CO)C1 (stereo partly drawn)",
    "IC50": "> 100 µM"
  },
  {
    "compound": "O=C(C[C@H]1CN[C@@H](c2c(O)ccc(Cl)c2Cl)C1)N1CC[C@@H]1CO",
    "IC50": "> 100 µM"
  },
  {
    "compound": "CN(C)C(=O)C[C@H]1CN[C@@H](c2c(O)ccc(Cl)c2Cl)C1",
    "IC50": "> 30 µM"
  },
  {
    "compound": "O=C(CO)NC[C@H]1CN[C@@H](c2c(O)ccc(Cl)c2Cl)C1",
    "IC50": "> 100 µM"
  },
  {
    "compound": "Oc1ccc(Cl)c(Cl)c1[C@H]1C[C@@H](Cc2cc[nH]n2)CN1",
    "IC50": "> 10 µM"
  },
  {
    "compound": "NC(=O)CC1CN[C@@H](c2cc(Cl)c(Cl)cc2O)C1 (stereo partly drawn)",
    "IC50": "> 10 µM"
  },
  {
    "compound": "CC[C@H](C(N)=O)[C@H]1CN[C@@H](c2c(O)ccc(Cl)c2Cl)C1 (single isomer, unassigned)",
    "IC50": "100 µM"
  },
  {
    "compound": "COC[C@H](C(N)=O)[C@H]1CN[C@@H](c2c(O)ccc(Cl)c2Cl)C1 (single isomer, unassigned)",
    "IC50": "> 100 µM"
  },
  {
    "compound": "CNC(=O)C[C@H]1CN[C@@H](c2c(O)ccc(Cl)c2Cl)C1",
    "IC50": "> 30 µM"
  }
]
